Method Notes: Pharmacokinetic screening in dogs, oral administration, plasma LC-MS/MS
Test Conditions: dogs, single oral dose (0.3 mg/kg per FIG. 1), time 360 min
Experimental Readout: LC/MS analysis, plasma level at time 360
Give a plain numeric answer without units written out.

Consider the reported LC/MS analysis, plasma level at time 360 for these molecules:
{"Molecule": "O=C(NC1CCN(C(=O)c2ccccn2)CC1)NC12CC3CC(CC(C3)C1)C2 [Compound 1201]", "Experimental Readout": "LC/MS analysis, plasma level at time 360", "Reported": 0.00}
{"Molecule": "O=C(NCC1CCN(C(=O)c2ccccc2)CC1)NC12CC3CC(CC(C3)C1)C2 [Compound 1121]", "Experimental Readout": "LC/MS analysis, plasma level at time 360", "Reported": 0.03}
{"Molecule": "O=C(NC1CCN(C(=O)c2ccccc2)CC1)NC12CC3CC(CC(C3)C1)C2 [Compound 1159]", "Experimental Readout": "LC/MS analysis, plasma level at time 360", "Reported": 0.00}
{"Molecule": "CCC(=O)N1CCC(NC(=O)NC23CC4CC(CC(C4)C2)C3)CC1 [Compound 1163]", "Experimental Readout": "LC/MS analysis, plasma level at time 360", "Reported": 4.95}
{"Molecule": "CC(=O)N1CCC(NC(=O)NC23CC4CC(CC(C4)C2)C3)CC1 [Compound 1153]", "Experimental Readout": "LC/MS analysis, plasma level at time 360", "Reported": 10.10}

Ask: Returns the measured LC/MS analysis, plasma level at time 360 for the input molecule. Input: COC(=O)CCCC(=O)N1CCC(NC(=O)NC23CC4CC(CC(C4)C2)C3)CC1 [Compound 1206]
Result: 0.00

Ask: Entry under review: COC(=O)c1ccc(C(=O)N2CCC(NC(=O)NC34CC5CC(CC(C5)C3)C4)CC2)cc1 [Compound 1204] . Reported LC/MS analysis, plasma level at time 360?
Result: 0.00

Ask: Entry under review: O=C(NC1CCN(C(=O)C(F)(F)F)CC1)NC12CC3CC(CC(C3)C1)C2 [Compound 1606] . Reported LC/MS analysis, plasma level at time 360?
Result: 3.21

Ask: What does the data say about its LC/MS analysis, plasma level at time 360? Entry: CCCC(=O)N1CCC(NC(=O)NC23CC4CC(CC(C4)C2)C3)CC1 [Compound 1157]
Result: 2.45
